The entries below are paired with their reported Emax.
tested on: primary human mesenchymal stem cells (hMSCs); assay: Induction of chondrogenesis in hMSCs (Rhodamine B / Nile Red nodule imaging); assay type: cell-based; conditions: maximum activity relative to TGF-β3 (10 ng/mL) positive control, read-out: Max. Activity as % TGF-β3 activity

{"Compound": "c1cc2[nH]c(-c3n[nH]c4ccc(-c5cncc(CN6CCCCC6)c5)cc34)cc2c(N2CCCCC2)n1 [Compound 183]", "Emax": "48%"}
{"Compound": "O=C(Nc1cncc(-c2ccc3[nH]nc(-c4cc5c(-c6ccccc6F)nccc5[nH]4)c3c2)c1)C1CCCC1 [Compound 78]", "Emax": "71%"}
{"Compound": "CC(C)(C)C(=O)Nc1cncc(-c2ccc3[nH]nc(-c4cc5c(N6CCCCC6)nccc5[nH]4)c3c2)c1 [Compound 176]", "Emax": "35%"}
{"Compound": "CCCC(=O)Nc1cncc(-c2ccc3[nH]nc(-c4cc5c(-c6cccc(F)c6)nccc5[nH]4)c3c2)c1 [Compound 17]", "Emax": "106%"}
{"Compound": "O=C(Nc1cncc(-c2ccc3[nH]nc(-c4cc5c(-c6ccncc6)nccc5[nH]4)c3c2)c1)C1CCCC1 [Compound 134]", "Emax": "114%"}
{"Compound": "CCCC(=O)Nc1cncc(-c2ccc3[nH]nc(-c4cc5c(-c6ccc(F)cc6)nccc5[nH]4)c3c2)c1 [Compound 45]", "Emax": "142%"}
{"Compound": "CCC(=O)Nc1cncc(-c2ccc3[nH]nc(-c4cc5cnccc5[nH]4)c3c2)c1 [Compound 253]", "Emax": "259%"}
{"Compound": "Nc1cncc(-c2ccc3[nH]nc(-c4cc5c(-c6ccncc6)nccc5[nH]4)c3c2)c1 [Compound 115]", "Emax": "77%"}
{"Compound": "Cc1ccncc1-c1ccc2[nH]nc(-c3cc4c(-c5cc(F)cc(CNS(C)(=O)=O)c5)nccc4[nH]3)c2c1 [Compound 481]", "Emax": "267%"}
{"Compound": "CN(C)Cc1cncc(-c2ccc3[nH]nc(-c4cc5c(N6CCCCC6)nccc5[nH]4)c3c2)c1 [Compound 181]", "Emax": "220%"}
{"Compound": "CCCCC(=O)Nc1cncc(-c2ccc3[nH]nc(-c4cc5cnccc5[nH]4)c3c2)c1 [Compound 271]", "Emax": "67%"}
{"Compound": "CC(C)(C)CC(=O)Nc1cncc(-c2ccc3[nH]nc(-c4cc5c(N6CCCCC6)nccc5[nH]4)c3c2)c1 [Compound 184]", "Emax": "79%"}
{"Compound": "CN1CCN(c2nccc3[nH]c(-c4n[nH]c5ccc(-c6cncc(NC(=O)CC7CCNCC7)c6)cc45)cc23)CC1 [Compound 641]", "Emax": "43%"}
{"Compound": "CN1CCN(c2nccc3[nH]c(-c4n[nH]c5ccc(-c6cncc(NC(=O)c7ccccc7)c6)cc45)cc23)CC1 [Compound 235]", "Emax": "35%"}
{"Compound": "Fc1cccc(-c2nccc3[nH]c(-c4n[nH]c5ccc(-c6cncc(CN7CCC(F)(F)C7)c6)cc45)cc23)c1 [Compound 26]", "Emax": "228%"}

Data provenance: patent US10463651B2
